# tested.system: UniProt Q8VGP6
# Sequence (whole entry): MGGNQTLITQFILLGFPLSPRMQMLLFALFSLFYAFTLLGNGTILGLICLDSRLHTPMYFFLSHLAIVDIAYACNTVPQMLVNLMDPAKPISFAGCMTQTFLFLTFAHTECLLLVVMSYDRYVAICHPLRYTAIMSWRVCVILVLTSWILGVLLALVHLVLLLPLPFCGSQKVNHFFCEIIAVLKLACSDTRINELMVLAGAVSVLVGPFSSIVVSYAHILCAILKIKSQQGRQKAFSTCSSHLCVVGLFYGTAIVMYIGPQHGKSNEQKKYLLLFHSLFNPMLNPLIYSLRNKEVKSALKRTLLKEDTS
# protocol.conditions: stereoisomer not certain
Just give me one of these, please: 1.0 = active, 0.0 = inactive

Previously resolved entries follow.
INSERT INTO results (molecule, class_label) VALUES
  ('CCCCCCOC(C)=O', 0.0),
  ('CCCCCCCCO', 1.0),
  ('CCC(=O)O', 0.0),
  ('COc1cc(C(=O)O)ccc1O', 0.0);

// query Hi, sorry to bother you, what did the test record for "c1ccccc1" ?
// result 0.0

// query Hi, sorry to bother you, what did the test record for "CCCCC(=O)O" ?
// result 0.0

// query Hi, sorry to bother you, what did the test record for "CCCCOC=O" ?
// result 0.0

// query Hi, sorry to bother you, what did the test record for CC12CCC(CC1=O)C2(C)C (centres undefined) ?
// result 0.0

// query Hi, sorry to bother you, what did the test record for "CCCCCC1=C(C)CCC1=O" ?
// result 0.0
